Here the recorded Kd is given for each entry.
# ASSAYED_TARGET: T1, cyno TfR extracellular domain (analogous construct to human TfR ecd) (cynomolgus monkey, UniProt Q5RDH6 87-760 (Pongo abelii entry))
# T1 construct: also called cynoTfR ecd
# T1 chain: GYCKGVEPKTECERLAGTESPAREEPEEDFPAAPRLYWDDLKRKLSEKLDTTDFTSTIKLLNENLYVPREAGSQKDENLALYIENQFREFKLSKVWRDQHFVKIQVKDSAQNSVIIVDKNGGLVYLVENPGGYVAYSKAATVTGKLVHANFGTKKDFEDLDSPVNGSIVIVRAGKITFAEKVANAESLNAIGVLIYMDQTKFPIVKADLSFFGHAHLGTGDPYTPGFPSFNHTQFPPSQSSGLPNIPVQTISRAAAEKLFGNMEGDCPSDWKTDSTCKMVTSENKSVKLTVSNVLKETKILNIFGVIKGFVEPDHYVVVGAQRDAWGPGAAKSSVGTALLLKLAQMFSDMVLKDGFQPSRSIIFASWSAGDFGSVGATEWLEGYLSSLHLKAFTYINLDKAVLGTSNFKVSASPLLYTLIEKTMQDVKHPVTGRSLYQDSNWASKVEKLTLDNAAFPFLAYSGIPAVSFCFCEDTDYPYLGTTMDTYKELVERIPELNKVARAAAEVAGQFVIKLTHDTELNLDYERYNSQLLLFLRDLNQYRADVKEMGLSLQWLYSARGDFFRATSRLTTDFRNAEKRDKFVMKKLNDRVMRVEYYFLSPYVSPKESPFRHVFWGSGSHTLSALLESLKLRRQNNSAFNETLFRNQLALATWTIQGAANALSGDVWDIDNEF
# ASSAY_SUMMARY: SPR, IgG;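 note: His-tagged TfR captured via immobilized anti-His antibody on a CM5 chip, antibody injected in 3-fold dilution series by single cycle kinetics, 1:1 Langmuir or steady-state fit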
Kindly answer with a numeric value in nM, unit omitted.

Please review the following examples before continuing.
BINDER	READOUT_LABEL	MEASUREMENT_UNITS	VALUE_MEASURED
hu7A4.v6 (antibody, V domains shown, IgG) VH: EVQLVQSGAEVKKPGASVKVSCKGSGYTFTDYAMHWVRQAPGQGLEWMGGISTYFGRTNYNQKFKGRVTMTRDTSISTAYMELSRLRSDDTAVYYCARGLSGNYVMDYWGQGTTVTVSS VL: DIVMTQSPDSLAVSLGERATINCRASESVDSYGNSFMHWYQQKPGQPPKLLIYRASNLESGIPDRFSGSGSGTDFTLTISSLQAEDVAVYYCQQSNEGPPTFGQGTKLEIK	Kd	nM	1.06
hu15G11.v5 IgG (antibody, V domains shown, Human IgG (detected with anti-human Fc gamma); also called humanized 15G11.v5) VH: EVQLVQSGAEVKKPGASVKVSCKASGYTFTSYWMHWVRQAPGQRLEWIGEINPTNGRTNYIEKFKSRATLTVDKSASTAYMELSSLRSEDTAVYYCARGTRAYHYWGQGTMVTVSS VL: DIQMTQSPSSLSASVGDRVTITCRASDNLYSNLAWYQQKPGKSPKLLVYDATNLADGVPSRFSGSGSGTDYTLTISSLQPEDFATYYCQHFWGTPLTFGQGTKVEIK	Kd	nM	11.8

# next binder below
Supply Kd value. Item: 15G11 (antibody, V domains shown, Mouse hybridoma antibody; also called clone 15G11) VH: QVQLQQPGAELVKPGASVKLSCKASGYTFTSYWMHWVKQRPGQGLEWIGEINPTNGRTNYIEKFKSKATLTVDKSSSTAYMQLSSLTSEDSAVYYCARGTRAYHYWGQGTSVTVSS VL: DIQMTQSPASLSVSVGETVTITCRASDNLYSNLAWYQQKQGKSPQLLVYDATNLADGVPSRFSGSGSGTQYSLKINSLQSEDFGTYYCQHFWGTPLTFGAGTKLELK 2.6

Entry source: patent US20180057604A1
